Molecular target: Cholinesterase (Equus caballus, UniProt P81908)
Sequence (P81908 whole entry): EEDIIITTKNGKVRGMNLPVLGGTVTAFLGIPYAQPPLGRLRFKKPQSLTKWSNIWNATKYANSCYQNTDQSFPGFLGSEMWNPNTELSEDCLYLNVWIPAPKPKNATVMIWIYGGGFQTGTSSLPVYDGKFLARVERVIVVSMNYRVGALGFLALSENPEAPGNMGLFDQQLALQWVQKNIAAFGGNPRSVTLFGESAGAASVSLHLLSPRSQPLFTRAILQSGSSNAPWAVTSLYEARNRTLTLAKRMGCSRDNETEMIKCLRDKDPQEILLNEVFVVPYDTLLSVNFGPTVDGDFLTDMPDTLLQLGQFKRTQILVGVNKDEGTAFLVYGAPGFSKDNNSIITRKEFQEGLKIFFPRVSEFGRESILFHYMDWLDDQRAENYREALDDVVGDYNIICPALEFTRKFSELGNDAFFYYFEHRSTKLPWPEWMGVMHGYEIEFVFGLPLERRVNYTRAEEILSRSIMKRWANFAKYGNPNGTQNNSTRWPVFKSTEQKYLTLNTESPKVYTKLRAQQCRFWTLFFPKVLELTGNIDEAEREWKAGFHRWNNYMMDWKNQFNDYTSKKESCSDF
Assay: Inhibition of horse serum BChE after 15 mins by Ellman's method
just bin them by IC50: Low: < 0.07 µM; Medium: ≥ 0.07 µM and < 2 µM; High: ≥ 2 µM

Study these solved cases before continuing.
CCCCN(CCCC)CCCCCOc1ccc(CN(CC)CC)cc1 | Medium
CCN(CC)CCCCCCOc1ccc(CN(CC)CC)cc1 | Medium
CCN(CC)Cc1ccc(OCCCCCN2CCN(C)CC2)cc1 | High
CCCN(CCC)CCCCOc1ccc(CN(CC)CC)cc1 | High
CCN(CC)Cc1ccc(OCCCCCCCCCCN2CCN(C)CC2)cc1 | Low

## Input Form field 'band' for CCN(CC)Cc1ccc(OCCCCCCCCN2CCCC2)cc1
## Output Low

## Input Form field 'band' for CCN(CC)CCCCOc1ccc(CN(CC)CC)cc1
## Output High

## Input Form field 'band' for CCN(CC)Cc1ccc(OCCCCCN2CCCC2)cc1
## Output Medium

## Input Form field 'band' for CCN(CC)Cc1ccc(OCCCCN2CCCC2)cc1
## Output Medium

## Input Form field 'band' for CCN1CCN(CCCCCCCCCCOc2ccc(CN(CC)CC)cc2)CC1
## Output Medium

## Input Form field 'band' for CCCCN(CCCC)CCCCCCCCOc1ccc(CN(CC)CC)cc1
## Output Low

## Input Form field 'band' for CCN1CCN(CCCCCCOc2ccc(CN(CC)CC)cc2)CC1
## Output High

## Input Form field 'band' for CCCN(CCC)CCCCCCOc1ccc(CN(CC)CC)cc1
## Output Medium

## Input Form field 'band' for CCN(CC)Cc1ccc(OCCCCN2CCN(C)CC2)cc1
## Output High

## Input Form field 'band' for CCCCN(CCCC)CCCCOc1ccc(CN(CC)CC)cc1
## Output High

## Input Form field 'band' for CCCN(CCC)CCCCCOc1ccc(CN(CC)CC)cc1
## Output Medium

## Input Form field 'band' for CCN(CC)Cc1ccc(OCCCCN2CCCCC2)cc1
## Output Medium

## Input Form field 'band' for CCN(CC)Cc1ccc(OCCCCCCCCCCN2CCCCC2)cc1
## Output Medium

## Input Form field 'band' for CCN1CCN(CCCCCOc2ccc(CN(CC)CC)cc2)CC1
## Output High

## Input Form field 'band' for CCN(CC)Cc1ccc(OCCCCCN2CCCCC2)cc1
## Output Medium

## Input Form field 'band' for CCCN(CCC)CCCCCCCCOc1ccc(CN(CC)CC)cc1
## Output Low

## Input Form field 'band' for CCN(CC)CCCCCCCCCCOc1ccc(CN(CC)CC)cc1
## Output Low

## Input Form field 'band' for CCN(CC)CCCCCCCCOc1ccc(CN(CC)CC)cc1
## Output Low
